The measurements presented in this section are drawn from patent US20190040136A1.

tested target: T1, biotinylated recombinant human LAG-3 (human, UniProt P18627 23-450, limits assumed, biotinylated)
T1 construct: also called soluble recombinant human LAG-3 protein
T1 sequence (looked up): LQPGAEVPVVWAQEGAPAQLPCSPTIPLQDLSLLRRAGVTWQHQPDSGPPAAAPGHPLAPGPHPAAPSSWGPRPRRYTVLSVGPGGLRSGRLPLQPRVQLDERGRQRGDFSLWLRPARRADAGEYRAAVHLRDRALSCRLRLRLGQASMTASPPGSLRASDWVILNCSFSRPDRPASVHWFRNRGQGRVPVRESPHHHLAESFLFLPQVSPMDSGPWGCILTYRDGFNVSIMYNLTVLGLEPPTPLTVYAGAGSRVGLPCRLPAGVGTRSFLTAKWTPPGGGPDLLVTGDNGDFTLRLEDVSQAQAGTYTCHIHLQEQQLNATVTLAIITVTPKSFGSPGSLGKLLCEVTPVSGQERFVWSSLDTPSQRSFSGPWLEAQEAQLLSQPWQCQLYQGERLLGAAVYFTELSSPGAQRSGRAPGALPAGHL
assay overview: ELISA, antibody coated on the plate, biotinylated recombinant human LAG-3 titrated (x axis, nM), streptavidin detection, absorbance 450-570 nm
metric name: EC50 (read off the curve)

Find the measured EC50 (read off the curve) of anti-LAG-3 antibody clone F5 in IgG1 format (antibody, V domains shown, IgG1 format; also called F5-IgG1) VH: EVQLVQSGAEVKKPGASVKVSCKVSGYTLTELSMHWVRQTPGKGLEWMGGFDPEDGETIYAQKFQGRVTMTEDTSTDTAYMELSSLRSEDTAVYYCATTWFGELYYWGQGTLVTVSS VL: ETTLTQSPGTLSLSPGERATLSCRASQSVSSGYLAWYQQKPGQAPRLLIYDASSRATGIPDRFSGSGSGADFTLTISRLQPEDFAVYYCQQYGSSRPGLTFGGGTRVEIK and report it. ~5 nM
